assayed-system: T1, human serum albumin (Homo sapiens, UniProt P02768)
T1 construct: human serum albumin (HSA), purchased from Sigma-Aldrich Japan; dissolved in phosphate buffer and dialysed; also called HSA; source: bought: Sigma-Aldrich Japan
assay-name: SPR; Biacore T200; HSA immobilised on CM5 chip by amine coupling (~1000 RU); increasing concentrations of antibodies injected at 30 μl/min; PBS with 0.05% Tween-20; global fit, 1:1 Langmuir model
recorded-conditions: both partners purified
reported-endpoint: pKd
Notebook: values listed as pKd are -log10 of the concentration (mol/L).

Below are worked cases with known answers.
Which value of pKd has been reported for Z18-T61L (VHH, IMGT numbering; the methods describe vector and expression for Z18 and Z26; source: E. coli BL21 (DE3), purified (Ni-NTA, SEC)) VHH: QVQLVESGGGLVQAGDSLRLSCAASGRTFSGYAMGWFRQAPGKEREFVARINWSGLLTYYADSVKGRFTGSRDNAKNTVYLQMNSLKPEDTAVYYCAQRGDSGSNYDPSGYSYWGQGTQVTVSS in the records? 8.06

Which value of pKd has been reported for Z18-G32D/R50L/G78A/S133R (VHH, IMGT numbering; the methods describe vector and expression for Z18 and Z26; source: E. coli BL21 (DE3), purified (Ni-NTA, SEC)) VHH: QVQLVESGGGLVQAGDSLRLSCAASGRTFSDYAMGWFRQAPGKELEFVARINWSGTLTYYADSVKGRFTASRDNAKNTVYLQMNSLKPEDTAVYYCAQRGDSGSNYDPSGYRYWGQGTQVTVSS in the records? 6.10

Which value of pKd has been reported for Z18-I56V (VHH, IMGT numbering; the methods describe vector and expression for Z18 and Z26; source: E. coli BL21 (DE3), purified (Ni-NTA, SEC)) VHH: QVQLVESGGGLVQAGDSLRLSCAASGRTFSGYAMGWFRQAPGKEREFVARVNWSGTLTYYADSVKGRFTGSRDNAKNTVYLQMNSLKPEDTAVYYCAQRGDSGSNYDPSGYSYWGQGTQVTVSS in the records? 6.53

Please examine the following record next.
Which value of pKd has been reported for single-domain VHH antibody Z26 (VHH, differs from Z18 at nine residues; pRA2 vector with N-terminal pelB signal peptide; also called wild-type Z26; source: E. coli BL21 (DE3), purified (Ni-NTA, SEC); not shown: hexa-histidine, C-terminal, kept) VHH: QLQLVESGGGLVQAGDSLRLSCAASGRTFSDYAMGWFRQAPGKELEFVARVNWSGLLTYYADSVKGRFTASRDNAKSTVYLQMNSLKPEDTAVYYCAQRGDSGSNFDPSGYRYWGQGTQVTVSS in the records? 9.27
